Target: BACE1 (β-secretase, recombinant human enzyme) (Homo sapiens, UniProt P56817)
Sequence (P56817 46-501): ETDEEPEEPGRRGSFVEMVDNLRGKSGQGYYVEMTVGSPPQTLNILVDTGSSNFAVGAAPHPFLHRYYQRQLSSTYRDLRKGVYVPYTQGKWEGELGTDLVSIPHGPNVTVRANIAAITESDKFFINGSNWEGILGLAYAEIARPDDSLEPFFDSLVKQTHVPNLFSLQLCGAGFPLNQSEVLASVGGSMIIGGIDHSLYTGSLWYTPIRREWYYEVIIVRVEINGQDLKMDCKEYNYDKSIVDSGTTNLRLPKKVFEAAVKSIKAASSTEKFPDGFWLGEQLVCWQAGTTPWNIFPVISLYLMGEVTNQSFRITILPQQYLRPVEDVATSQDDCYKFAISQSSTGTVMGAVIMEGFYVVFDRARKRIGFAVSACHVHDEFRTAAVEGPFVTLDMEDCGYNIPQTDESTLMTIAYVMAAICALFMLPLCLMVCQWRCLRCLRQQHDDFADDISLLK
Experiment: In vitro BACE1 activity assay (FRET kit)
Settings: compounds in 10% DMSO, concentrations up to 125 μM
pIC50: −log10 of the molar value.
Known pIC50 of a selection of compounds

{"compound": "Cc1cc2c(c(C)c1CCO[C@@H]1OC(CO)[C@@H](O)[C@H](O)C1O)C(=O)[C@H](C)C2 (stereo partly drawn) [Compound 14, (2R)-pteroside B]", "pIC50": 4.36}
{"compound": "Cc1cc2c(c(C)c1CCO[C@@H]1OC(CO)[C@@H](O)[C@H](O)C1O)C(=O)[C@](C)(CO)C2 (stereo partly drawn) [Compound 12, (2S)-pteroside A]", "pIC50": 4.07}
{"compound": "Cc1cc2c(c(C)c1CCO[C@@H]1OC(CO)[C@@H](O)C(O)C1O)C(=O)[C@](C)(O)C2 (single isomer, unassigned; (-)) [Compound 18, (−)-pteroside N]", "pIC50": 4.51}
{"compound": "Cc1c(CCO[C@@H]2OC(CO)[C@@H](O)[C@H](O)C2O)c(CO)cc2c1C(=O)[C@@H](C)C2 (stereo partly drawn) [Compound 19, (2S)-pteroside P]", "pIC50": 4.09}
{"compound": "Cc1cc2c(c(C)c1CCO[C@@H]1OC(CO)[C@@H](O)[C@H](O)C1O)C(=O)C(C)(C)C2 (some centres unmarked) [Compound 20, pteroside Z]", "pIC50": 4.22}
{"compound": "Cc1cc2c(c(C)c1CCO[C@@H]1OC(CO)[C@@H](O)[C@H](O)C1O)C(=O)C(C)(C)[C@H]2O (stereo partly drawn) [Compound 17, (3S)-pteroside D]", "pIC50": 4.97}
{"compound": "Cc1cc2c(c(C)c1CCO[C@@H]1OC(CO)[C@@H](O)[C@H](O)C1O)C(=O)[C@H](C)[C@H]2O (stereo partly drawn) [Compound 16, (2R,3R)-pteroside C]", "pIC50": 5.01}
{"compound": "Cc1cc2c(c(C)c1CCO[C@@H]1OC(CO)[C@@H](O)[C@H](O)C1O)C(=O)[C@@H](C)[C@H]2O (stereo partly drawn) [Compound 15, (2S,3R)-pteroside C]", "pIC50": 4.54}
